- TARGET OR SYSTEM: T1, human CD8 on human T cells (human, UniProt P01732 22-235)
- T1 construct: whole, on cells; the antibodies were raised against human CD8 alpha; also called CD8 on human CD8+ T cells; hCD8
- T1 sequence (P01732 22-235): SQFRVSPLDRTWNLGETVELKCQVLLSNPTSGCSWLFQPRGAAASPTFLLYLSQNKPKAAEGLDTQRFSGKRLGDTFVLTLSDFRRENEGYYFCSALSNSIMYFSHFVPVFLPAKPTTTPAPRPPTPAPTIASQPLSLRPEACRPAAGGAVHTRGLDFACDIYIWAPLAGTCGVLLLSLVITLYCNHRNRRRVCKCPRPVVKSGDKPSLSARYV
- ASSAY NAME: flow cytometry on human CD8+ T cells, titration
MEASURE: Maximum CD8+ T cell Binding (MFI)
Dear colleague, please return just the value in MFI, with no unit written.

In the examples that follow, each entry is paired with its recorded Maximum CD8+ T cell Binding (MFI).
humanized 02A01-VH2-VK3 (antibody, human IgG1, V domains shown, human IgG1 format; also called 02-VH2-VK3) VH: EVQLVQSGAEVKKPGATLKISCKASGYTFTDFTMHWVQQAPGKGLEWIGLVNPNNGGNIYNQNFKGRATLTVDTSTSTAYMELSSLRSEDTSVYYCGRVPLYTSHGMDYWGQGTLVTVSS VL: EIVLTQSPATLSLSPGERATISCRASESVDSYDINSMHWYQQKPGQAPRLLIYRASHLQSGIPARFSGSGSRTDFTLTISSLEPEDFATYYCQQSNEDPLTFGQGTKLEIK : 2880
humanized 02A01-VH3-VK3 (antibody, human IgG1, V domains shown, human IgG1 format; also called 02-VH3/VK3) VH: EVQLVQSGAEVKKPGATLKISCKASGYTFTDFTMHWVQQAPGKGLEWIGLVNPNNGGNIYAEKFQGRATLTVDTSTSTAYMELSSLRSEDTSVYYCGRVPLYTSHGMDYWGQGTLVTVSS VL: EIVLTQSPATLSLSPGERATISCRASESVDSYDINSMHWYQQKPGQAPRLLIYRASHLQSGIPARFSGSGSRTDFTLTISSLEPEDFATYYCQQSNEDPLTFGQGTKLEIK : 2540

We now examine a further binder.
Noted for humanized 02A01-VH4-VK1 (antibody, human IgG1, V domains shown, human IgG1 format; also called 02-VH4-VK1) VH: EVQLVQSGAEVKKPGATVKISCKASGYTFTDFTMHWVQQAPGKGLEWIGLVNPNNGGNIYAEKFQGRATLTVDTSTSTAYMELSSLRSEDTAVYYCGRVPLYTSHGMDYWGQGTLVTVSS VL: EIVLTQSPATLSVSPGERATISCRASESVDSYDINSMHWYQQKPGQPPRLLIYRASHLQSGIPARFSGSGSRTDFTLTISSVEPEDFATYYCQQSNEDPLTFGQGTKLEIK : its Maximum CD8+ T cell Binding (MFI) reads 2810

Values compiled from patent US20260055186A1.
